Target: recombinant human SAE enzyme (Homo sapiens (Human), UniProt Q9UBT2)
Sequence (Q9UBT2 whole entry): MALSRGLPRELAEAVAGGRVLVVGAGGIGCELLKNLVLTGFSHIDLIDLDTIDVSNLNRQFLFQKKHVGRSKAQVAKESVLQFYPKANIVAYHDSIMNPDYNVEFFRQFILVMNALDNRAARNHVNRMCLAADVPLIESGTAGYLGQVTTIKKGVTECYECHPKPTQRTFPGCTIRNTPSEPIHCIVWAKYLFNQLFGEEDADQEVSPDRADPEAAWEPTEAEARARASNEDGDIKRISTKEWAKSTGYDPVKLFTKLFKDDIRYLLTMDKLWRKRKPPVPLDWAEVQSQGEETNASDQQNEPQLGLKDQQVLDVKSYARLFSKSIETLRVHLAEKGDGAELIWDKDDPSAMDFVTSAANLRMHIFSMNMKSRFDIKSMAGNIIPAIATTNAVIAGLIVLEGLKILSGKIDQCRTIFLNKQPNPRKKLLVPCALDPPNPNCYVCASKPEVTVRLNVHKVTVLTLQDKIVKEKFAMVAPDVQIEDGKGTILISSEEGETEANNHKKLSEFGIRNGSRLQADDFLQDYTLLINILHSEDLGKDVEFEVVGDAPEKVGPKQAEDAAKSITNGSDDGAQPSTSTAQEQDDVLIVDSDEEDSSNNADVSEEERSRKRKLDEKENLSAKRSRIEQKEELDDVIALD
Sequence (Q9UBE0 whole entry partner): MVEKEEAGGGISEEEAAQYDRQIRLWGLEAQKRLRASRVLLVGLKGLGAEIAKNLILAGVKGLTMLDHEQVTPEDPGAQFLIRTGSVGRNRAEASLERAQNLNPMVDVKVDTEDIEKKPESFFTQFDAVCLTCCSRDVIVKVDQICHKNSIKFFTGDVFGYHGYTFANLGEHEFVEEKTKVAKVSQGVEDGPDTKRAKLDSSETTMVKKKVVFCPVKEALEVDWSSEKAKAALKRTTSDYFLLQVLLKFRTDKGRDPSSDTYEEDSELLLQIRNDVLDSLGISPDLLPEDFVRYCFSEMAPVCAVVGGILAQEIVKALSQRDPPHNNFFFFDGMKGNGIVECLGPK
Test: SAE HTRF enzyme assay
Type: biochemical
Conditions: Concentration 0.111 μM; read-out: Percent Inhibition
measured attribute: inhibition at 0.111 µM

The following molecules have reported results that may help.
| molecule | observed |
| --- | --- |
| Cc1sc(C(=O)c2cncnc2N[C@@H]2C[C@H](COS(N)(=O)=O)[C@@H](O)C2)cc1CN1CCc2ccc(C#N)cc21 [I-128] | 95% |
| Cc1sc(C(=O)c2cncnc2N[C@@H]2C[C@H](COS(N)(=O)=O)[C@@H](O)C2)cc1CN1CCc2cc(Cl)ccc21 [I-159] | 91% |
| NS(=O)(=O)OC[C@H]1C[C@@H](Nc2ncncc2C(=O)c2cc(Cc3cccc(Br)c3)c(Cl)s2)[C@H](O)[C@@H]1O [I-76] | 99% |

# batch: return inhibition at 0.111 µM for each of the 2 molecules below
1. NS(=O)(=O)OC[C@H]1C[C@@H](Nc2ncncc2C(=O)c2cc(COc3ccccc3C(F)(F)F)cs2)C[C@@H]1O [I-188]
2. CN(Cc1csc(C(=O)c2cncnc2N[C@@H]2C[C@H](COS(N)(=O)=O)[C@@H](O)C2)c1)c1cccc(Cl)c1 [I-138]

[A]
79%
96%

# batch: return inhibition at 0.111 µM for each of the 2 molecules below
1. COc1cccc(Cc2csc(C(=O)c3cncnc3N[C@@H]3C[C@H](COS(N)(=O)=O)[C@@H](O)C3)c2)c1 [I-123]
2. NS(=O)(=O)OC[C@H]1C[C@@H](Nc2ncncc2C(=O)c2cc(Cc3ccc(F)c(Cl)c3)cs2)C[C@@H]1O [I-61]

[A]
["96%", "98%"]

* * *

For each of the compounds below, state its pIC50.
Biological target: recombinant human SAE enzyme (Homo sapiens (Human))
Assay: SAE HTRF enzyme assay
Assay type: biochemical
Details: class symbols A/B/C
Experimental: Example 215: SAE HTRF enzyme assay The SAE enzymatic reaction totals 50 μl and contains 50 mM HEPES Hemisodium (pH 7.5), 0.05% BSA, 5 mM MgCl2, 0.5 μM ATP, 250 μM GSH, 0.01 μM Ubc9-GST, 0.125 μM Sumo-Flag and 0.11 nM recombinant human SAE enzyme. […] After incubation for 2 hours at 24° C., quantification of FRET is performed on the Pherostar™ (BMG Labtech). Percentage inhibition values at a single concentration or enzyme inhibition (IC50) values are determined from those curves. […]
pIC50: −log10 of the molar value.

| compound | observed |
| --- | --- |
| Cc1sc(C(=O)c2cncnc2N[C@@H]2C[C@H](COS(N)(=O)=O)[C@@H](O)C2)cc1[S@+]([O-])c1cccc(Cl)c1 (single isomer, unassigned) [I-28a] | 7.00 to 8.00 |
| NS(=O)(=O)OC[C@H]1C[C@@H](Nc2ncncc2C(=O)c2cc(CN3CCC(F)(F)C3)cs2)C[C@@H]1O | 6.00 to 7.00 |

Consider now this further compound.
[Q] // fetch recombinant human SAE enzyme (Homo sapiens (Human)) pIC50 for Cc1sc(C(=O)c2cncnc2N[C@@H]2C[C@H](COS(N)(=O)=O)[C@@H](O)[C@@H]2F)cc1[C@H]1OCCc2ccc(Cl)cc21 (single isomer, unassigned) [I-264b]
[A] > 8.00
